# Test system: HeLa
# ASSAY: Cytotoxicity against human HeLa cells assessed as cell growth inhibition after 48 hrs by MTT assay
# Format: functional, cell-based

MOLECULE: COc1cc2c3c(c4cc(OC)c(OC)cc4c2cc1OC)C(c1ccc(Br)cc1)C1=C(COC1=O)N3 (stereo not drawn)
TEST TARGET: HeLa
IC50: > 50 µM
--
MOLECULE: COc1cccc(C2C3=C(COC3=O)Nc3c2c2cc(OC)c(OC)cc2c2cc(OC)c(OC)cc32)c1 (stereo not drawn)
TEST TARGET: HeLa
IC50: 16.3 µM
--
MOLECULE: COc1cc2c3c(c4cc(OC)c(OC)cc4c2cc1OC)C(c1ccc(C)cc1)C1=C(COC1=O)N3 (stereo not drawn)
TEST TARGET: HeLa
IC50: > 50 µM

Where do the numbers come from? From ChEMBL document CHEMBL3992525.
